- EXPERIMENTAL SYSTEM: T1, extracellular domain of hIFNGR1 (human, UniProt P15260 18-245, conjugated to Alexa647 (site not stated))
- T1 construct: UniProt P15260 residues 18-245; also called hIFNGR1-ECD; human IFNGR1 ECD
- T1 sequence: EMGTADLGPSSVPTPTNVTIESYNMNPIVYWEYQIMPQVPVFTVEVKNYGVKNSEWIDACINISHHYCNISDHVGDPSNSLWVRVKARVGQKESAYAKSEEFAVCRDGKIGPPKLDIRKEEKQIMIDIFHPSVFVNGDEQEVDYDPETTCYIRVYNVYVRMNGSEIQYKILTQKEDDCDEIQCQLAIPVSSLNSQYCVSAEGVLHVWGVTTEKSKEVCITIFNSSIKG
- EXPERIMENT SUMMARY: flow cytometry, yeast-displayed VHH, 100 nM Alexa647-conjugated antigen
PROPERTY MEASURED: binding result

DR905 (VHH, also called anti-IFNGR1 sdAb VHH DR905) VHH: EVQLVESGGGLVQAGGSLRLSCVASGRTFTGYAMGWFRQAPGKEREFVAVITWSGATTYYSASVKGRFTLSRDNAKNTVYLQMNSLKSEDTAVYYCAIRIRDGVSPENPNEYGYWGQGTQVTVSS = binds
DR919 (VHH, also called anti-IFNGR1 sdAb VHH DR919) VHH: EVQLVESGGGLVQPGGFLRLSCAASRRTLSTYAMGWFRQAPGKEREFVAAISWRSGNTYYADSVKGRFTISRDNAKNTMYLQMNSLKPEDTAVYYCAANEVATMSGPHDHWGQGTLVTVSS = binds
DR917 (VHH, also called anti-IFNGR1 sdAb VHH DR917) VHH: EVQLVESGGGLVQAGGSLRLSCAASGRTFSGYNMGWFRQAPGKEREFVAAIAWAGSRTYYTDSVKGRFTISRDNAKNTMYLQMNTLRPEDTAVYYCAAHDETYYRLDRVDLYTHWGQGTLVTVSS = binds
DR922 (VHH, also called anti-IFNGR1 sdAb VHH DR922) VHH: QVQLVESGGGLVRAGGSLRLSCAASGSITSINTMGWFRQAPGKQRELVAAITSGGSTNYADSVKGRFTISRDNARNTVYLQMYSLKPEDTAVYYCEADSMYFRGQGTQVTVSS = binds

// query binding result value for entry DR924 (VHH, also called anti-IFNGR1 sdAb VHH DR924) VHH: QVQLVESGGGLVQAGGSLRLSCTASGRTFSRYAMGWFRQAPGKEREFVATISRSGGTTSYANSVKGRFTISRDNAKNTVYLQMNSLKTEDTAVYNCAARDGPAMGVFGSDYDYWGQGTLVTVSS
binds

// query binding result value for entry DR907 (VHH, also called anti-IFNGR1 sdAb VHH DR907) VHH: EVQLVESGGGLVQAGGSLRLSCAASGRTFSNYAMGWFRQAPGNEREFVAAINWNIGSTYYADSVKGRFTISRDNAKNTVYLQMNSLKPEDTAVYYCGAVWPTGRLRVDSEYDYWGQGTQVTVSS
binds

// query binding result value for entry DR916 (VHH, also called anti-IFNGR1 sdAb VHH DR916) VHH: EVQLVESGGGLVQPGGSLRLSCTASGRPRTTYAMGWFRQAPGKEREIVAAISKAGGSTYVADSAKGRFAISKDNAKNTVYLQMNSLKPEDTAVYYCAARAGFAAQIFEYDYWGQGTLVTVSS
binds

// query binding result value for entry DR911 (VHH, also called anti-IFNGR1 sdAb VHH DR911) VHH: EVQLVESGGALVQAGGSLRLSCTVSGRSFSTYAMAWFRRAPGKERELVSAITVGGGSTYYVDSVKGRFTISRENAKNTLYLQMNNLKPEDTAIYICAARDYRRRSYAPEAEQYDYWGQGTQVTVSS
binds

Values were extracted from patent US20230272088A1.
